Tested on: C-C chemokine receptor type 2 (Homo sapiens)
Sequence (P41597 whole entry): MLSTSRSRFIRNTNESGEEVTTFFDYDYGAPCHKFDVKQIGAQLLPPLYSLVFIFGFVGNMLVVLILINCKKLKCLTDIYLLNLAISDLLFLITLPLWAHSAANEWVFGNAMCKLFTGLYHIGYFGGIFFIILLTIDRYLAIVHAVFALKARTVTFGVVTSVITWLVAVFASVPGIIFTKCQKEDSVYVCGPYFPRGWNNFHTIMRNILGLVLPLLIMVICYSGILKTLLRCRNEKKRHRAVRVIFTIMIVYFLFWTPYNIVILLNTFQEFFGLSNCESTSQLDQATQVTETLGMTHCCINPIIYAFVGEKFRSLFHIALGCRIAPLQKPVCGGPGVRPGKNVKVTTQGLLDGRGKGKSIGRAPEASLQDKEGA
Assay info: Concentration required to inhibit [125I]MCP-1 binding to Chemokine receptor 2B
Field 'label' (enum: met / not met). Set to met when IC50 is strictly under 40 µM; else not met.

Check if IC50 falls below 40 µM for Cc1cccc(C(=O)NCC(=O)NC2CCN(Cc3ccc(Cl)cc3)C2)c1 (stereo not given) .
met

Lab note: IC50 threshold 40 µM. Does this molecule come in strictly under it? Cc1cccc(C(=O)NCC(=O)NC2CCCN(Cc3ccc(Cl)cc3)C2)c1 (stereo not given)
met

Could you please tell me whether IC50 recorded for O=C(CNC(=O)c1ccccc1)NC1CCN(Cc2ccc(Cl)cc2)C1 (stereo not given) is less than 40 µM?
not met

Threshold test, IC50 < 40 µM: O=C(CNC(=O)c1cccc(C(F)(F)F)c1)NC1CCN(Cc2ccc(Cl)cc2)C1 (stereo not given)
met

Identify whether the molecule O=C(CCCC(=O)c1ccccc1)NCC1CCCN1Cc1ccc(Cl)cc1 (stereo not given) records IC50 below 40 µM.
met

Is IC50 of "O=C(CCNC(=O)c1ccccc1)NCC1CCN(Cc2ccc(Cl)cc2)CC1" strictly below 40 µM?
not met

Please let me know if "Cc1cccc(C(=O)NCC(=O)NCC2CCN(Cc3ccc(Cl)cc3)CC2)c1" shows IC50 below 40 µM.
met

API: query returns whether the molecule falls strictly under 40 µM in IC50. Query: O=C(CCNC(=O)c1ccccc1)NC1CCCN(Cc2ccc(Cl)cc2)C1 (stereo not given)
not met

Does the reported IC50 of the following molecule sit strictly below 40 µM? "O=C(CNC(=O)c1cccc(C(F)(F)F)c1)NC[C@H]1CCCN1Cc1ccc(Cl)cc1"
met

I'd appreciate it if you could check whether "O=C(CNC(=O)c1cccc(C(F)(F)F)c1)NCC1CCN(Cc2ccc(Cl)cc2)CC1" has IC50 smaller than 40 µM.
met

Hello, is IC50 of the following molecule strictly smaller than 40 µM? "O=C(CCCC(=O)c1ccccc1)NCC1CCN(Cc2ccc(Cl)cc2)CC1"
not met

Decide: IC50 of Cc1csc(C(=O)NNC(=O)CNC2CCN(CCC(c3ccccc3)c3ccccc3)C2)c1 (stereo not given) strictly below 40 µM?
met

Here's an entry: "O=C(CNC(=O)c1cccc(C(F)(F)F)c1)N[C@H]1CCN(Cc2ccc(Cl)cc2)C1" . Is its IC50 below 40 µM?
met

Below 40 µM on IC50? Entry O=C(CNC(=O)c1ccccc1)NCC1CCCN1Cc1ccc(Cl)cc1 (stereo not given)
not met
